# assay.summary: viability profiling in MM1S myeloma cells – cell-based, resazurin fluorescence, basal, 24 h, PK04 Diversity Set, profiling panel (AID 1174);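 further: MM1S multiple myeloma cell line; test concentration not given here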
# test.settings: higher = more signal, called active from +8 up or from −8 down
What z-score was measured for each of the following?
Please reply with the value in numeric form only.

# input May I ask what z-score has been recorded for `COc1cc2c(cc1O)C=[N+](Cc1cc3c(cc1Br)OCO3)CC2` ?
# output -1.29

# input Which z-score is listed for O=C1C2C=CC(C(O)c3ccc(F)cc3)N(Nc3ccc([N+](=O)[O-])cc3)C2C(=O)N1c1ccccc1 (stereo not drawn) ?
# output -0.115

# input Data request, read-out z-score, for C=CCN(Cc1ccccc1)C(=O)C(c1cccs1)N(C(=O)/C=C\C(=O)O)c1ccc(CCOCCO)cc1 (stereo not drawn)
# output 0.222

# input I have this compound here, `COCCOC(=O)N1C(=O)[C@@]2(c3ccccc31)[C@H](C(=O)N1CCCCCCC1)[C@H]1C(=O)O[C@H](c3ccccc3)[C@H](c3ccccc3)N1[C@@H]2c1ccc(OCCO)cc1` , and I need its recorded z-score.
# output -0.44

# input Which z-score value belongs to `CC(C)C(=C=CC[C@H](O)c1ccc(CO)o1)CCO` ?
# output -0.159

# input If you can, please state the reported z-score value of `COC(=O)C[C@H]1O[C@@H](CCc2ccccc2)[C@@H](C)[C@@H]1[Si](C)(C)c1ccc(OC)cc1` .
# output -0.229

# input Bench note: what z-score did `C=C(CCCC)/C(=C/C[C@H](OC(C)=O)c1ccccc1OCCO)c1cnc2ccccc2c1` show?
# output -1.37

# input Using the record for CCCCN1CC=CC23O[C@@H]4/C=C\CCCOC(=O)C4[C@H]2C(=O)N(CCCO)[C@@H]3C1=O (stereo partly drawn) , report its z-score.
# output 0.31
